Origin of measurements: patent US20240016931A1

# subject.of.test: T1, His-tagged human TSLP antigen (huTSLP-his) (human)
# T1 construct: Secreted from HEK293E and purified on nickel; whole entry named; also called Human TSLP-his
# protocol.details: ELISA, coated huTSLP-his;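 also: binding of antibodies to plate-bound TSLP read as absorbance at 450 nm after TMB colour development, EC50 derived from binding curves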
Examples of binders with documented pEC50 follow.
// pEC50: -log10(molar conc.)

binder	pEC50
hu3-09 (antibody, human IgG1, kappa, V domains shown, IgG1-YTE, kappa) VH: EVQLVQSGAEVKKPGASVKVSCKASGYTFTDDYMNWVKQAPGQRLEWIGIISPYNGGTSYNQKFKGRATLTVDKSASTAYMELSSLRSEDTAVYYCAREDYDYDGYAMDHWGQGTTVTVSS VL: EIVLTQSPATLSLSPGERATLSCRASSSVSYMHWYQQKPGQAPRPWIYATSNLASGVPARFSGSGSGTDYTLTISRLEPEDFAVYYCQQWSSNRTFGGGTKVEIKR	9.31
hu119-10 (antibody, human IgG1, kappa, V domains shown, IgG1-YTE, kappa) VH: EVQLVQSGAEVKKPGSSVKVSCKASGFTFSTYNMHWVRQAPGQGLEWMGAIYPGNGETSYNQKFKDRVTLTVDKSTSTAYMELSSLRSEDTAVYYCAREDDYGEGYFDVWGQGTTVTVSS VL: DIVMTQSPDSLAVSLGERATINCRASESVDNSGLSFMHWYQQKPGQPPKLLLYRASNLGSGIPDRFSGSGSGTDFTLTISSLQAEDVAVYYCQQINTDPLTFGQGTKLEIKR	9.63

// below: pEC50 requested for another binder
Endpoint output: pEC50 of hu119-12 (antibody, IgG1, V domains shown, IgG1-YTE, kappa) VH: EVQLVQSGAEVKKPGSSVKVSCKASGFTFSTYNMHWVKHAPGQGLEWIGAIYPGNGETSYNQKFKDRATLTVDKSTSTAYMELSSLRSEDTAVYYCAREDDYGEGYFDVWGQGTTVTVSS VL: DIVMTQSPDSLAVSLGERATINCRASESVDNSGLSFMHWYQQKPGQPPKLLLYRASNLGSGIPDRFSGSGSGTDFTLTISSLQAEDVAVYYCQQINTDPLTFGQGTKLEIKR . Value? 9.69
